Origin of the recorded values: ChEMBL document CHEMBL5104117

# Test system: Pseudomonas aeruginosa
# method.notes: Antibiotic activity against Pseudomonas aeruginosa PA01 assessed as inhibition of bacterial growth incubated for 16 hrs by microtiter broth dilution method
# Type: functional
Provide the reported MIC of each item.

Request: Name the reported MIC value associated with the compound CCCCCCc1c(O)c(Cl)cc2c1OC1(C2=O)C(Cl)=C(Cl)C(=O)N1Cc1ccc(C(F)(F)F)cc1 (centres undefined)
Response: > 32 µg/mL

Request: Another compound to look at: CCCCCCc1c(O)c(Cl)cc2c1OC1(C2=O)C(Cl)=C(Cl)C(=O)N1Cc1ccc(C)cc1 (centres undefined)
Response: > 32 µg/mL

Request: And what about the compound CCCCCCc1c(O)c(Cl)cc2c1OC1(C2=O)C(Cl)=C(Cl)C(=O)N1CCc1ccccc1 (centres undefined) ?
Response: > 32 µg/mL

Request: Now consider CCCCCCCCCCCCN1C(=O)C(Cl)=C(Cl)C12Oc1c(cc(Cl)c(O)c1CCCCCC)C2=O (centres undefined) and answer again.
Response: > 32 µg/mL

Request: Proceed to CCCCCCc1c(O)c(Cl)cc2c1OC1(C2=O)C(Cl)=C(Cl)C(=O)N1Cc1ccccc1 (centres undefined)
Response: > 32 µg/mL

Request: Can you check C=CCN1C(=O)C(Cl)=C(Cl)C12Oc1c(cc(Cl)c(O)c1CCCCCC)C2=O (centres undefined) next?
Response: > 32 µg/mL

Request: Moving on to the next compound: CCCCCCN1C(=O)C(Cl)=C(Cl)C12Oc1c(cc(Cl)c(O)c1C)C2=O (centres undefined)
Response: > 32 µg/mL

Request: What do you have for CCCCCCCCCCCCN1C(=O)C(Cl)=C(Cl)C12Oc1c(cc(Cl)c(O)c1C)C2=O (centres undefined) ?
Response: > 32 µg/mL

Request: Same again, this time with Cc1c(O)c(Cl)cc2c1OC1(C2=O)C(Cl)=C(Cl)C(=O)N1C (centres undefined)
Response: > 32 µg/mL

====

I'd appreciate it if you could supply hemolysis at 1 h, 200 µM values for the items below.
# method.notes: Toxicity in sheep RBC assessed as induction of hemolysis at 200 uM and measured after 1 hr relative to control
# Format: cell-based, Ovis aries, Erythrocyte
# setup.conditions: sheep red blood cells, read-out: Activity

Request: # hemolysis at 1 h, 200 µM lookup, item CCCCCCc1c(O)c(Cl)cc2c1OC1(C2=O)C(Cl)=C(Cl)C(=O)N1C (stereo not drawn)
Response: < 15%

Request: Same read-out for CCCCCCc1c(O)c(Cl)cc2c1OC1(C2=O)C(Cl)=C(Cl)C(=O)N1CCc1ccccc1 (stereo not drawn) ?
Response: < 5%

Request: Moving on to the next molecule: CCCCCCc1c(O)c(Cl)cc2c1OC1(C2=O)C(Cl)=C(Cl)C(=O)N1CCCCCC (stereo not drawn)
Response: < 5%

====

# method.notes: Cytotoxicity against human A549 cells assessed as number of viable cells at 100 uM incubated for 24 hrs by calcein-AM and ethidium homodimer-1 staining based flow cytometry
# Format: toxicity, cell-based
# setup.conditions: read-out: Activity
Provide the reported viability at 24 h, 100 µM of each item.

Request: Could you tell me which viability at 24 h, 100 µM is on file for CCCCCCc1c(O)c(Cl)cc2c1OC1(C2=O)C(Cl)=C(Cl)C(=O)N1CCCCCC (stereo not drawn) ?
Response: > 95%

Request: // repeat for CCCCCCc1c(O)c(Cl)cc2c1OC1(C2=O)C(Cl)=C(Cl)C(=O)N1CCc1ccccc1 (stereo not drawn) and report
Response: > 95%

Request: Repeat with CCCCCCc1c(O)c(Cl)cc2c1OC1(C2=O)C(Cl)=C(Cl)C(=O)N1C (stereo not drawn)
Response: > 95%
